B1: library; numbered along this chain (parent)
chain: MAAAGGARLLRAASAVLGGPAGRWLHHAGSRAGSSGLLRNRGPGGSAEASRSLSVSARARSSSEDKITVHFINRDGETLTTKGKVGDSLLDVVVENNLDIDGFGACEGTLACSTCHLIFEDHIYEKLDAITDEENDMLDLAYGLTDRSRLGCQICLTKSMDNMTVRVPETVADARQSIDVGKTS

Variants of: B1
assay protocol: scaled log2 fold change in cell abundance, elesclomol vs control (0 = silent mean, 1 = nonsense mean) (scaled log2 ratio); higher = higher viability under elesclomol (loss of FDX1 cuproptosis function);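 also: variant abundance is its share of total variant reads in each endpoint sample, from next-generation sequencing of the integrated ORF PCR-amplified out of genomic DNA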
experimental conditions: with ABC1 FDX1 KO; elesclomol 5 nM; glucose 10 mM; 14 days
Output Y for scaled log2 fold change not less than 0.1; output N otherwise.

[
  {
    "mutant": "A47T",
    "classification": "Y"
  },
  {
    "mutant": "P43W",
    "classification": "N"
  },
  {
    "mutant": "L98W",
    "classification": "Y"
  }
]

Now look at this one.
Is the recorded value of scaled log2 fold change equal to or greater than 0.1 for this variant? `T145N`
Y
